B1: ACBD3 (parent)
chain: YVASHKIEKEEQEKKRKEEEERRR

Variants of: B1
protocol.notes: protein stability index of a GFP-peptide fusion (GPS, HEK-293T) (PSI 1-6); higher = more stable;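 also: lentivirally expressed fusions sorted by FACS into six bins by GFP to DsRed ratio, PSI derived from sequencing read proportions per bin multiplied by bin number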
condition.notes: c terminus: a fixed tail appended
quantity.kind: protein stability index
Keep the answer to the number alone.

[
  {
    "primary.sequence": "YVASHKIEKEECEKKRKEEEERRR [Q12C]",
    "protein stability index": 2.92
  },
  {
    "primary.sequence": "YVASHKIEKEEQEQKRKEEEERRR [K14Q]",
    "protein stability index": 2.95
  },
  {
    "primary.sequence": "YVASHKIEKEEQEKKRKEEEESRR [R22S]",
    "protein stability index": 2.99
  }
]

// next item, protein stability index requested
The variant YVAEHKIEKEEQEKKRKEEEERRR [S4E] showed protein stability index equal to 3.05
